# Tested on: AncSZ
# Test Method Notes: phosphorylation enrichment, bacterial display (enrichment ratio); higher = better substrate or ligand; peptides without Tyr show the background;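 note: 11-residue human phosphosite peptides and single-mutation variants displayed on the E. coli surface, counted by deep sequencing, each peptide's frequency after selection divided by its frequency in the unselected input library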;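 note: frequency after pTyr selection over input frequency; kinase dosed for 20-30% of maximal phosphorylation in three min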
Measurement Kind: phosphorylation enrichment
# output: bare number, no unit

Would you kindly share the measured phosphorylation enrichment for YVPSNYVAEDR [FRK_Y104_I100V] ?
0.886

# iterate: QKFMAYPSQGG [HLCS_Y236_L237P]
0.625

# iterate: GCKKRYDKDKP [THAP1_Y14_N12K]
0.833

# iterate: THPFLYLTLEI [MLH1_Y293_S295T]
1.71

# iterate: DLDATYRPMFS [JUP_Y701_M697L_YF]
0.722

# iterate: THPFLYLSLEI [MLH1_Y293]
1.13

# iterate: SAEEDYMADAK [KCNT1_Y876]
1.3

# iterate: FIAVGYVDDTQ [HLA-A_Y51]
0.822

# iterate: YAANYYKLLGN [ROR2_Y646_D644N]
0.566

# iterate: SHGQDYLVGNK [GSTA1_Y147]
0.585

# iterate: LDAFIYDAALL [GRIN2A_Y730_V734L]
1.44

# iterate: FFRKFYNKSED [RYR1_Y4864]
0.794

# iterate: TVLEPYADPYY [ZC3H18_Y367]
2.42

# iterate: NHQYDYTFHWT [CSNK1A1_Y294_D297H]
2.13

# iterate: GTTIHYNYMCN [TP53_Y234_C229G]
1.12

# iterate: NYADPYRQLQY [CTNND2_Y503]
0.776

# iterate: FKIFRYTLNDN [FN1_Y1975_L1974R_YF]
1.02

# iterate: LKLWDYSRGRC [WDR5B_Y239]
0.966

----------
# Assayed Target: EPHB2 (UniProt P29323)
# Sequence (P29323 whole entry, looked up): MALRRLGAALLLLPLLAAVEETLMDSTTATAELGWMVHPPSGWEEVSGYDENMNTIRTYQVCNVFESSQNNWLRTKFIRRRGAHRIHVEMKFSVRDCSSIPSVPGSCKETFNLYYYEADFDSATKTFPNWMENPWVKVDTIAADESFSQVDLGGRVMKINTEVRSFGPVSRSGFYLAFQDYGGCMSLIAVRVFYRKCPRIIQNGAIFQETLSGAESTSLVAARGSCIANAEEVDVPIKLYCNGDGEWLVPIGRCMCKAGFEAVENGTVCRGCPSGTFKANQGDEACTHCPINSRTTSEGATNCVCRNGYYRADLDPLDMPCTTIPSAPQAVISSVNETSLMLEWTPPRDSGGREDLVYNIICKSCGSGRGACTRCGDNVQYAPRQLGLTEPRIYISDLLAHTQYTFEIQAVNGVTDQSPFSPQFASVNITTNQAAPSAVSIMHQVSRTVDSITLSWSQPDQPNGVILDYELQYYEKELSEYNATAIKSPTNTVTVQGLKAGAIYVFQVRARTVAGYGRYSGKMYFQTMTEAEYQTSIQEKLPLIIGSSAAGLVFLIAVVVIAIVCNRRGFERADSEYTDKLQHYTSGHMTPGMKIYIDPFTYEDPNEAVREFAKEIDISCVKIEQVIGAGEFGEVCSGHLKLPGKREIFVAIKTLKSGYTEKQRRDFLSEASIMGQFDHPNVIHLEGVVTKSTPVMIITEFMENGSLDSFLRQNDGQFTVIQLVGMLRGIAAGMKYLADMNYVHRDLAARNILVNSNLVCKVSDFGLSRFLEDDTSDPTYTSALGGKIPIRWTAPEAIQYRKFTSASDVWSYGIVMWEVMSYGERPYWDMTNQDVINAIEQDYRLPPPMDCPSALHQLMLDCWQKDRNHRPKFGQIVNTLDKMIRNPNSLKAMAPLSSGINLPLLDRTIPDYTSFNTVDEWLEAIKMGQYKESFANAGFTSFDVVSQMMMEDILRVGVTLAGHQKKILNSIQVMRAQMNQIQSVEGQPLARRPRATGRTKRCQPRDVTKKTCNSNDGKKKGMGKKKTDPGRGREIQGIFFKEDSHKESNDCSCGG
# Test Method Notes: phosphorylation enrichment, bacterial display (enrichment ratio); higher = better substrate or ligand; peptides without Tyr show the background
Measurement Kind: phosphorylation enrichment

Would you kindly share the measured phosphorylation enrichment for PSDSGYSYETI [MAP1B_Y1921] ?
0.467

# iterate: SQSPHYFRSGQ [GPATCH8_Y1038_R1043Q]
0.316

# iterate: LLNAIYLSAKR [SERPING1_Y294_W299R]
0.846

# iterate: PLDGEYFTLHI [TP53_Y327_Q331H]
0.97

# iterate: TGILLYGLASR [QARS1_Y57]
1.38

----------
# Assayed Target: MERTK (UniProt Q12866)
# Sequence (Q12866 whole entry, looked up): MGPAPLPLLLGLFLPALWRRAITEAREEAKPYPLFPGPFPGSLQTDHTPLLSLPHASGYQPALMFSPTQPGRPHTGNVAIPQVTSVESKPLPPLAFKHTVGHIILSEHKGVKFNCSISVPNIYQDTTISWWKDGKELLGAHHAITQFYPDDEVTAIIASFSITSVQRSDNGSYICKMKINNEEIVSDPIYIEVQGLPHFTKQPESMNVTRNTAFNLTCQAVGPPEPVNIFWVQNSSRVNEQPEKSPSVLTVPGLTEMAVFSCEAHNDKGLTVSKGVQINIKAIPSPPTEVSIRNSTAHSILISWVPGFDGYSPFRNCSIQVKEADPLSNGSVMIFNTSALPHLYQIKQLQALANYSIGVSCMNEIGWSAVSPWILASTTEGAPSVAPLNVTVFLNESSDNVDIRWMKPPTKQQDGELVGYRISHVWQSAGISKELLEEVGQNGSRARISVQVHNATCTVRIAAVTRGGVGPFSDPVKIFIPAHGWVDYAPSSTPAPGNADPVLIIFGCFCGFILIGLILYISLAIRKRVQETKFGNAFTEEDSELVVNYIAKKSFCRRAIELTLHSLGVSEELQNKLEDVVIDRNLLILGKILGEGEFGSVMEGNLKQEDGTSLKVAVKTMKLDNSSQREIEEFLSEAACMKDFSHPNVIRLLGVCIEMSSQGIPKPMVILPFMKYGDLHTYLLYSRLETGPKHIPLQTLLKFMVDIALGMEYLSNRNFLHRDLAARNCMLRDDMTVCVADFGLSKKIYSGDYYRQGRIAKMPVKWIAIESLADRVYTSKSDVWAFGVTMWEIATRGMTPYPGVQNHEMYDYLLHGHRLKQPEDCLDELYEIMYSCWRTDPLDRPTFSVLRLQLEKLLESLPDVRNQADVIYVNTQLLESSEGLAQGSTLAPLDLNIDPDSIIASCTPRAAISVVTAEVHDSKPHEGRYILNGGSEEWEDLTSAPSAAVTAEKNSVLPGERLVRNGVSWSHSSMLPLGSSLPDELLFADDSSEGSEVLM
# Test Method Notes: phosphorylation enrichment, bacterial display (enrichment ratio); higher = better substrate or ligand; peptides without Tyr show the background
// Not satisfied strictly below 0.4 in phosphorylation enrichment; Satisfied otherwise

Is reported phosphorylation enrichment greater than or equal to 0.4 here: KWRGQYDVAIE [BTK_Y425_K430E]
Satisfied

# iterate: RFLRGYRQYAY [HLA-A_Y137_D140Y]
Satisfied

# iterate: PDGREYIFVDP [PDGFRA_Y572_H570R_YF]
Satisfied

# iterate: RLLVVYPWTER [HBB_Y36_Q40E]
Not satisfied

# iterate: GVPLGYPIKAS [ELN_Y206_P211S]
Not satisfied

# iterate: YPKARYRWLVL [APTX_Y214_H215R]
Satisfied

# iterate: IKEFKYGIEEH [GJA1_Y137_K134E]
Not satisfied

# iterate: PQQLWYTHEKK [UBTF_Y207]
Not satisfied

# iterate: FSPGSYERETF [NF1_Y2192]
Satisfied

# iterate: WKESWYSMRKM [FGB_Y475_G472E]
Satisfied

# iterate: QSLEPYTKQQL [STAT3_Y640_V637L]
Not satisfied

# iterate: RENGPYYASYP [GDAP2_Y487_T489A]
Satisfied

# iterate: LINSVYGCSRQ [TMPRSS6_Y290_T287N]
Satisfied

# iterate: AQMAMYFWEMS [TRPM4_Y577_G582S]
Satisfied

# iterate: LSIQTYSALNF [DES_Y423_P419S]
Satisfied

# iterate: GSIQQYTYKQE [PRG4_Y1271_I1272T]
Not satisfied

# iterate: AVNDFYAAKKT [CCDC178_Y422]
Satisfied

# iterate: NTCNRYCRDEI [ITGB3_Y660]
Satisfied

# iterate: CTTNHYNFMCN [TP53_Y234_I232N_YF]
Satisfied

# iterate: WNGDKYAATTT [TRIM39_Y439]
Not satisfied

# iterate: NHQYDYTFHWT [CSNK1A1_Y294_D297H]
Satisfied

# iterate: KVMANYMYKAG [MAML2_Y513]
Not satisfied

# iterate: TLLPDYEDEEE [ZNF830_Y159_S154T]
Satisfied

# iterate: KIVYVYVKKRS [DNAI2_Y7_E2K]
Satisfied

# iterate: LLKKIYLMLDN [STAT1_Y203_M202I]
Satisfied

# iterate: LEIETYRRLLD [KRT12_Y429]
Not satisfied

# iterate: VECHPYFTQPK [AKR1D1_Y199]
Not satisfied

# iterate: SIKDKYVTALC [KCNH2_Y611_Y616C]
Not satisfied

# iterate: AEKPKYQISNI [TJP1_Y1602_N1605S]
Not satisfied

# iterate: ILTLKYLIEHG [ACTG1_Y69_P70L]
Satisfied

# iterate: VPEANYTSDEE [STK33_Y439_D436E]
Satisfied

# iterate: YTGSTYRVGDT [FN1_Y106_N104S]
Not satisfied

# iterate: WVFNHYRWFIW [BRCA2_Y2624_I2627F_YF]
Satisfied

# iterate: ASLLPYFPAIM [IPO4_Y518]
Not satisfied

# iterate: AQINLYQDVML [ZNF806_Y33]
Satisfied

# iterate: KLLRLYAVVTR [LYN_Y306_V303L]
Satisfied

# iterate: EHFSYYGMKAV [SLC15A2_Y61_R57H]
Satisfied

# iterate: YVPSNYVAEDR [FRK_Y104_I100V]
Satisfied

# iterate: DPASAYADEVK [ETNPPL_Y189_S185P]
Satisfied

Reference source for all entries: the supplement of paper PMC10065799
